Target: T1, GST-PHD1 (S287-K347) of KDM5A (human, UniProt P29375 287-347)
T1 chain: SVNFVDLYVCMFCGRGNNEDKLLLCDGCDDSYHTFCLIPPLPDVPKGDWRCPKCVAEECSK
Experiment: FP
experimental.endpoint: Kd (nM)

INSERT INTO results (binder, numeric_result) VALUES
  ('ARTKQTARKS (trimethyl-lysine at 9 (K9me3)) [H3K9me3 10mer peptide]', 740),
  ('ARTKQTARKS [unmodified H3 10mer effector peptide (H3 Ala1-Ser10)]', 996),
  ('ARTKQTARKS (acetyl-lysine at 9 (K9ac)) [H3K9ac 10mer peptide]', 1010);
